- Assay System: T1, human HER3/ErbB3 extracellular domain (human, UniProt P21860 20-643)
- T1 construct: extracellular domain; the range 1-643 of M34309 is printed only for the immunogen; also called Human HER3 ECD; recombinant human HER3
- T1 sequence (P21860 20-643): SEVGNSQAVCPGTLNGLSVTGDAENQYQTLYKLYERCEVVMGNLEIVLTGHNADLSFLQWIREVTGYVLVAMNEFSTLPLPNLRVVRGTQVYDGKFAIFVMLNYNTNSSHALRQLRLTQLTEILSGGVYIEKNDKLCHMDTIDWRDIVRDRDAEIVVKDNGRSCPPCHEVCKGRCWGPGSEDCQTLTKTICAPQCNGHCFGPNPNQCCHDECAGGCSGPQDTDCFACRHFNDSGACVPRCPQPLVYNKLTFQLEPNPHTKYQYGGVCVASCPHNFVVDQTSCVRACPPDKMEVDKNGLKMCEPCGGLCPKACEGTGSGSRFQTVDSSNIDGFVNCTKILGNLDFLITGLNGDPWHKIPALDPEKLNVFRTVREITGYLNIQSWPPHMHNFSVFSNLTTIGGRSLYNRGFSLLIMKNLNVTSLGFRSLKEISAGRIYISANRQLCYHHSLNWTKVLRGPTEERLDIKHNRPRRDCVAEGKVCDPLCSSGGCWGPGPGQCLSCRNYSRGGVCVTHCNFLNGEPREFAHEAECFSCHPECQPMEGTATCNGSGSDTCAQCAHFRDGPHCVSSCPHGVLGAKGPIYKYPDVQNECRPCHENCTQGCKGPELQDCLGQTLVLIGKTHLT
- Test Description: ELISA on human HER3 ECD
Measured Property: EC50

# EC50 of HER3-hMab-A11 (antibody, V domains shown) VH: QVQLVESGGGLVQPGGSLRLSCSASGFSFSASYYIYWVRQAPGKGLEYIAYITGDDDKRTYYANWAKGRFTISRDNSKNTVYLQMNSLRAEDTAVYYCTRNLPDELWGPGTLVTVSS VL: QAQMTQTPSTLSASVGDRVTITCQSSESVYSYKNLAWYQQKPGKPPKLLIWQASRLSSGVPSRFSGSGSGTEFTLTISSLQPDDFATYYCQGTYYSSAWDFVFGGGTKVEIK = 2.6 ng/mL

Values compiled from patent US20180066066A1.
